- targetDesc: D5 dopamine receptor (D5R) (Homo sapiens)
- Sequence (P21918 whole entry): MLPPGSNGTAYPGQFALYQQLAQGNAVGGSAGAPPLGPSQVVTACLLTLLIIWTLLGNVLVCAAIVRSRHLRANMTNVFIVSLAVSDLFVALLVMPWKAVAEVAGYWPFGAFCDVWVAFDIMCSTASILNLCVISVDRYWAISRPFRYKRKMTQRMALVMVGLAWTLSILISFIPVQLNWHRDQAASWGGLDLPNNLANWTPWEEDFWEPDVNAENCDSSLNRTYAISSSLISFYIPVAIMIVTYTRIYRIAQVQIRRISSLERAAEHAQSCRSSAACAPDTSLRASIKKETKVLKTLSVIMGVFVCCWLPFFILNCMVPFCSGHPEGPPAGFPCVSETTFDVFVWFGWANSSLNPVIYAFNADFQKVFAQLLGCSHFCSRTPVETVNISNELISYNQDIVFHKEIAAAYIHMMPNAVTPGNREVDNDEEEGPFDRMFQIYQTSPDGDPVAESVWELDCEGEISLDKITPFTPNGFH
- assayComment: cAMP accumulation, DiscoveRx HitHunter, HEK293
- Type: cell-based
measuredMetric: pEC50
One number for each entry, as −log10 of the molar value.

**Q:** Identify the measured pEC50 of C=CCN1CCc2cc(O)c(O)cc2C(c2ccccc2)C1 (centres unmarked) for D5 dopamine receptor (D5R) (Homo sapiens).
**A:** 7.09

###

- targetDesc: D1 dopamine receptor (D1R) (Homo sapiens, UniProt P21728)
- Sequence (P21728 whole entry): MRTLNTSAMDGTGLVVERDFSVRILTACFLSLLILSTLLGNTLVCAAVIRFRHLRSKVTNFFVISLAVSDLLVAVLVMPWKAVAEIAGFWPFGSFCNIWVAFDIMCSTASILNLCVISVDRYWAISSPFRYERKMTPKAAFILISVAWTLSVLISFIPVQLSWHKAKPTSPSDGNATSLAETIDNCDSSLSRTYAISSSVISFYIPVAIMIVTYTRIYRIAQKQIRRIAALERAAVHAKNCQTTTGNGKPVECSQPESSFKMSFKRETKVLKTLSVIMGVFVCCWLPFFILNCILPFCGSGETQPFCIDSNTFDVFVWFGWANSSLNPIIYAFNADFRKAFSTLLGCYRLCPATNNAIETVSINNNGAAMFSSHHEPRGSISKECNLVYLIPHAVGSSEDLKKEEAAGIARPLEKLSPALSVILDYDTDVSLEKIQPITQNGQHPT
- assayComment: cAMP accumulation, DiscoveRx HitHunter, HEK293
- Assay type: cell-based
measuredMetric: pEC50
Numbers only, as −log10 of the molar value.

**Q:** What does the data say about its pEC50? Entry: CN1CCc2c(cc(O)c(O)c2Cl)C(c2ccccc2)C1 (stereo not shown)
**A:** 9.52
